Source of measurements: PubChem BioAssay (NCI)

Test system: LOX IMVI melanoma
Test: NCI-60 one-dose screen, 48 h (100 = growth as untreated, 0 = no growth, -100 = all killed)
Details: 10 µM unless noted
Compounds without any hit were thinned out: in the full panel of roughly 83,000, 20% have a hit.
Quick rule: growth of at least 40% means Y, below that means N.

// below: answered molecules
COc1cccc(/C=N\Nc2ccc([N+](=O)[O-])cn2)c1O	N
CCS(=O)(=O)Nc1cccc(Nc2c3cccc(C)c3nc3c(C)cccc23)c1OC	N
Nc1nc(N)c2cc(NCc3ccc(Cl)c(Cl)c3)ccc2n1	N
CCN(CC)Cc1cc(Nc2ccnc3ccc(OC)cc23)ccc1O	N
CC(C)[C@@H]1C=C2CC[C@H]3[C@](C)(CN)CCC[C@]3(C)[C@H]2CC1	Y

(Q) Would you say `CN(C)CCCN1c2ccccc2CCc2ccccc21` shows growth at minimum 40%?
(A) Y

(Q) Same read-out for CC(C)(C)[Si](C)(C)OC1[C@@H](O[Si](C)(C)C(C)(C)C)[C@@H](CNC(=O)NC(=O)NC(=O)CI)O[C@H]1n1cnc2c(NC(=O)Nc3ccccc3)ncnc21 (some centres undefined) ?
(A) N

(Q) What do you have for `COCc1nc(NS(=O)(=O)c2ccc(N)cc2)nc(C)c1Br` ?
(A) Y

(Q) Can you check `Cc1cccc(/C=N/n2c(-c3ccc(Cl)cc3)nc3c(Br)cc(Br)cc3c2=O)c1` next?
(A) Y
